System: 843782-103-R-J1-PDC complex spheroid viability
Experiment: Anticancer human tumor 843782-103-R-J1-PDC patient-derived lung adenocarcinoma cell line growth inhibition [RAS]
Details: second compound 0.003 µM; first compound 1 µM; active compounds read low
Property: viability, T/C; scope: individual molecules
The figure you give is taken to be in %; do not add the unit.

MOLECULE: Nc1ccn(C2OC(CO)C(O)C2(F)F)c(=O)n1 (configuration not stated) + CCn1c(-c2cccnc2C(C)OC)c2c3cc(ccc31)N1CCOC(CC(NC(=O)C(C(C)C)N(C)C(=O)C3(F)CCN(C(=O)C#CC(C)(C)N(C)C)CC3)C(=O)N3CCCC(N3)C(=O)OCC(C)(C)C2)C1
UNIT_NAME: %
viability, T/C: 2.38

Turning to the following molecule.
Please look at this molecule and report its viability, T/C: CC1(O)CCCC1n1c(=O)c(C(F)F)cc2cnc(NC3CCN(S(C)(=O)=O)CC3)nc21 (configuration not stated) + CCn1c(-c2cccnc2C(C)OC)c2c3cc(ccc31)N1CCOC(CC(NC(=O)C(C(C)C)N(C)C(=O)C3(F)CCN(C(=O)C#CC(C)(C)N(C)C)CC3)C(=O)N3CCCC(N3)C(=O)OCC(C)(C)C2)C1
22.2

---

Test system: 843782-103-R-J1-PDC complex spheroid viability
Assay: Anticancer human tumor 843782-103-R-J1-PDC cell line growth inhibition [RAS]; active means viability on the fitted dose curve at most 10% of control; inactive means the rest;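 also: viability read after seven days of compound exposure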
Conditions: compound 0.3 µM
# output must be one of class 1 (active), class 0 (inactive)

MOLECULE: CCn1c(-c2cc(N3CCN(C)CC3)cnc2C(C)OC)c2c3cc(ccc31)-c1csc(n1)CC(NC(=O)C1CC1C)C(=O)N1CCCC(N1)C(=O)OCC(C)(C)C2 (centres undefined)
MEASURED_ON: 843782-103-R-J1-PDC complex spheroid viability
ANSWER_LABEL: class 0
//
MOLECULE: CCc1c2c(nc3ccc(O)cc13)-c1cc3c(c(=O)n1C2)COC(=O)[C@]3(O)CC
MEASURED_ON: 843782-103-R-J1-PDC complex spheroid viability
ANSWER_LABEL: class 1
//
MOLECULE: CC1(C)CCC(Nc2ncc(C(F)(F)F)c(-c3c[nH]c4c(P(C)(C)=O)c(C#N)ccc34)n2)CN1 (centres undefined)
MEASURED_ON: 843782-103-R-J1-PDC complex spheroid viability
ANSWER_LABEL: class 0

Please find the next molecule below.
How did this test come out for CCn1c(-c2cccnc2C(C)OC)c2c3cc(ccc31)N1CCOC(CC(NC(=O)C(C(C)C)N(C)C(=O)C3(F)CCN(C(=O)C#CC(C)(C)N(C)C)CC3)C(=O)N3CCCC(N3)C(=O)OCC(C)(C)C2)C1 (centres undefined) ?
class 0

---

Test system: 843782-103-R-J1-PDC complex spheroid viability
Assay: Anticancer human tumor 843782-103-R-J1-PDC cell line growth inhibition [RAS]; active = viability on the fitted dose curve at most 10% of control; inactive = the rest;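 also: viability read after seven days of compound exposure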
Details: second compound 0.01 µM; first compound 0.1 µM
# output must be one of active, inactive

Here are 2 compounds together with their reported answers.
COMPOUND: CC1(O)CCCC1n1c(=O)c(C(F)F)cc2cnc(NC3CCN(S(C)(=O)=O)CC3)nc21 (stereo not drawn) + C=CC(=O)N1CCN(c2nc(OCC3CCCN3C)nc3c(F)c(-c4nc(N)cc(C)c4C(F)(F)F)c(Cl)cc23)C(C)C1
ANSWER_LABEL: inactive
//
COMPOUND: O=C(c1ccc(F)c(F)c1Nc1ccc(I)cc1F)N1CC(O)([C@@H]2CCCCN2)C1 + C=CC(=O)N1CCN(c2nc(OCC3CCCN3C)nc3c(F)c(-c4nc(N)cc(C)c4C(F)(F)F)c(Cl)cc23)C(C)C1
ANSWER_LABEL: inactive

Please find the next compound below.
How did this test come out for Nc1ccn(C2OC(CO)C(O)C2(F)F)c(=O)n1 (stereo not drawn) + C=CC(=O)N1CCN(c2nc(OCC3CCCN3C)nc3c(F)c(-c4nc(N)cc(C)c4C(F)(F)F)c(Cl)cc23)C(C)C1 ?
active
